- System: TNIK
- condition.description: concentration: 1 μM, replicates: in singlicate; n = 1;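 note: KINOMEscan kinase panel screen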
%Inh for assorted compounds
Just the number in %, nothing appended.

As a guide, the following entries are already answered.
Problem: Request the reported %Inh associated with CC(=O)c1cccc(NC(=O)NC2CCN(c3ccnc(Nc4ccc(F)cc4)n3)C2)c1 (centres unmarked) [GSK1379710]
Solution: 3

Problem: Request the reported %Inh associated with Cn1cncc1C(=O)NC1CCN(c2ccnc(Nc3ccc(F)cc3)n2)C1 (centres unmarked) [GSK1379717]
Solution: 0

Problem: Request the reported %Inh associated with COC(=O)c1cccc(NC(=O)NC2CCN(c3ccnc(Nc4ccc(F)cc4)n3)C2)c1 (centres unmarked) [GSK1379725]
Solution: 0

***
Problem: Request the reported %Inh associated with CSc1ccc(-c2nc3n(c2-c2ccncc2)CCC3)cc1 [SKF-105561]
Solution: 7

Problem: Request the reported %Inh associated with Cc1nccc(-c2c(-c3ccc(F)cc3)ncn2CCCN2CCOCC2)n1.Cl [SB-282975]
Solution: 0

Problem: Request the reported %Inh associated with COc1ccc(Nc2nccc(N3CCC(NC(=O)c4cc5ccccc5s4)C3)n2)cc1 (centres unmarked) [GSK1379738]
Solution: 0

Problem: Request the reported %Inh associated with Nc1ncnc2occ(-c3ccc4c(c3)CCN4C(=O)Cc3cc(F)ccc3F)c12 [GSK2645446]
Solution: 0

Problem: Request the reported %Inh associated with Cn1cnc2c(N)ncnc21 [SKF-97623]
Solution: 0

Problem: Request the reported %Inh associated with c1ccc(-c2ccnc3[nH]ccc23)cc1 [SB-693578]
Solution: 8

Problem: Request the reported %Inh associated with Cc1c(Cn2c3ccccc3n3c(=O)cc(N4CCOCC4)nc23)cccc1C(F)(F)F [GSK2306394]
Solution: 0

Problem: Request the reported %Inh associated with O=C(Nc1n[nH]c2nc(-c3cccs3)c(Br)cc12)C1CCCC1 [SB-743341]
Solution: 0

* * *

- Tested on: PCTK3
- Construct: gene CDK18
- condition.description: concentration: 1 μM, replicates: in singlicate; n = 1
parameter.measured: %Inh (%)
Just the number in %, nothing appended.

Problem: Request the reported %Inh associated with Cc1nccc(-c2c(-c3ccc(F)cc3)ncn2CCCN2CCOCC2)n1.Cl [SB-282975]
Solution: 10

Problem: Request the reported %Inh associated with CS(=O)(=O)CCNCc1nc(-c2ccc3ncnc(Nc4ccc5c(cnn5Cc5ccccc5)c4)c3c2)cs1.Cl.Cl [GW569716]
Solution: 16

Problem: Request the reported %Inh associated with O=C(Nc1n[nH]c2nc(-c3cccs3)c(Br)cc12)C1CCCC1 [SB-743341]
Solution: 56

Problem: Request the reported %Inh associated with Nc1cccc(-c2ccc3c(N)n[nH]c3c2)n1 [GSK2192730]
Solution: 3

Problem: Request the reported %Inh associated with COc1ccc(CSc2nnc(-c3ccc4ncsc4c3)o2)cc1C(F)(F)F
Solution: 0

Problem: Request the reported %Inh associated with CN1c2ccc(-c3ccc(C(N)=O)cc3)cc2-c2[nH]ncc2S1(=O)=O
Solution: 0

Problem: Request the reported %Inh associated with CS(=O)(=O)Cc1ccc(Nc2nccc(-c3c(-c4cccc(NC(=O)C5CCCCC5)c4)nn4ncccc34)n2)cc1 [GSK350559]
Solution: 12

Problem: Request the reported %Inh associated with CC(=O)c1cccc(NC(=O)NC2CCN(c3ccnc(Nc4ccc(F)cc4)n3)C2)c1 (centres unmarked) [GSK1379710]
Solution: 24

Problem: Request the reported %Inh associated with CCn1c(-c2ccccc2)nc2cnccc21 [SB-733416]
Solution: 0

Problem: Request the reported %Inh associated with CCCCc1nn2ncccc2c1-c1ccnc(NC2CC2)n1 [GW684374]
Solution: 15

Problem: Request the reported %Inh associated with COc1ccc(Nc2nccc(-c3ccc(NC(=O)c4cc5cc(F)ccc5[nH]4)cc3)n2)cc1 [GSK1229496]
Solution: 0
